- Tested on: OVCAR-8 ovarian
- assay_notes: NCI-60 one-dose screen, 48 h (100 = growth as untreated, 0 = no growth, -100 = all killed)
- measurement_setup: 10 µM unless noted
This is part of a sample that, as a whole, favours compounds with a hit. Of some 83,000 tested, about 20% had one in any assay.
Response field label takes condition met when growth is strictly below 60% and condition not met in all other cases.

[
  {
    "compound": "COc1ccc(-c2cc(-c3cc(OC)ccc3O)[nH]c(=O)c2C#N)cc1",
    "label_class": "condition not met"
  },
  {
    "compound": "C=C(C=O)C1CCC2(C(=O)O)CCC3(C)C(CCC4C5(C)CCC(O)C(C)(C)C5CCC43C)C12 (stereo unspecified)",
    "label_class": "condition met"
  },
  {
    "compound": "COc1ccc(/C(C)=C(\\c2ccc(Cl)cc2)c2ccc(OCCCN(C)C)cc2)cc1F",
    "label_class": "condition not met"
  },
  {
    "compound": "CN(C)c1ccc(C#Cc2c(F)cccc2Cl)cc1",
    "label_class": "condition not met"
  },
  {
    "compound": "COc1cccc(CCC2CCCN(c3cc(C)nc(N)n3)C2)c1 (stereo unspecified)",
    "label_class": "condition met"
  },
  {
    "compound": "Fc1ccc(Nc2nc3nonc3nc2Nc2ccc(F)cc2)cc1",
    "label_class": "condition met"
  },
  {
    "compound": "CCCCNCC(=O)Nc1ccc(C(=O)OCC)cc1",
    "label_class": "condition not met"
  },
  {
    "compound": "COc1ccc(-c2nc3ncccn3c2/C=C/C(=O)c2cc(OC)c(OC)c(OC)c2)cc1",
    "label_class": "condition met"
  },
  {
    "compound": "CC(C)CCC[C@@H](C)[C@H]1CCC2C3=CCn4c(=O)ccc(=O)n4C3CC[C@@]21C (stereo partly specified)",
    "label_class": "condition met"
  },
  {
    "compound": "Cn1nnnc1-c1ccc(N)cc1",
    "label_class": "condition not met"
  },
  {
    "compound": "COc1ccc(-c2cn(-c3cccc(C(=O)/C=C/c4cc(OC)c(OC)c(OC)c4)c3)c(=O)[nH]2)cc1",
    "label_class": "condition met"
  },
  {
    "compound": "Cc1nc2ccccc2c(/C=C/c2ccc(Cl)cc2)c1C(=O)/C=C/c1ccc(Cl)cc1",
    "label_class": "condition met"
  },
  {
    "compound": "O=[N+]([O-])c1ccc(-c2cc3c(Nc4ccc(OCc5cccc(Cl)c5)c(Cl)c4)ncnc3s2)cc1",
    "label_class": "condition met"
  },
  {
    "compound": "NC(N)=N/N=C/CO",
    "label_class": "condition not met"
  },
  {
    "compound": "O=C1C(Cl)C(c2ccccc2Cl)N1n1cnnc1 (stereo unspecified)",
    "label_class": "condition not met"
  },
  {
    "compound": "CN1CCN(CCCOc2ccc3nc(Nc4cc(Cl)cc(Cl)c4)ccc3c2)CC1",
    "label_class": "condition met"
  },
  {
    "compound": "C=CC(=O)N[C@@H](Cc1ccc(-c2cc(Cl)cc(Cl)c2)cc1)[C@@H](O)[C@H](O)C(=O)O",
    "label_class": "condition not met"
  },
  {
    "compound": "OC(CBr)c1ccnc2ccccc12 (stereo unspecified)",
    "label_class": "condition not met"
  },
  {
    "compound": "CNC(=O)c1cc(Oc2ccc3nc(NC(=O)Nc4cc(C(F)(F)F)cc(C(F)(F)F)c4)sc3c2)ccn1",
    "label_class": "condition met"
  },
  {
    "compound": "O=C1c2ccccc2C(=O)c2cc(Cn3cc[n+](Cc4ccc5ccccc5c4)c3)ccc21",
    "label_class": "condition not met"
  },
  {
    "compound": "COc1ccc(-c2cc(-c3ccc(Nc4nc(Nc5ccccc5)nc(Nc5ccc(Cl)cc5)n4)cc3)nc(N)c2C#N)cc1",
    "label_class": "condition met"
  }
]

====

- System: MALME-3M melanoma
- assay_notes: NCI-60 one-dose screen, 48 h (100 = growth as untreated, 0 = no growth, -100 = all killed)
- measurement_setup: 10 µM unless noted
About 83,000 compounds went through this panel and 20% of them were active in at least one assay; those are over-represented in the sample as a whole.
compounds and their reported growth

[
  {
    "compound": "CCCCOc1nc2ccc(Cl)cc2cc1/C=C/C(=O)/C=C1/CC(c2cc3cc(Cl)ccc3nc2OCCCC)Nc2ccccc2N1 (stereo not given)",
    "unit_text": "%",
    "growth": 79.4
  },
  {
    "compound": "CCCCOC(=O)c1ccc(NC(=O)C(C)N2CCOCC2)cc1 (stereo not given)",
    "unit_text": "%",
    "growth": 91.8
  },
  {
    "compound": "CCOC(=O)C1C(=O)C=C(c2cnccn2)CC1c1ccc(OC)c(OC)c1 (stereo not given)",
    "unit_text": "%",
    "growth": 100
  },
  {
    "compound": "CN(C)c1cnccn1",
    "unit_text": "%",
    "growth": 127
  },
  {
    "compound": "C=C(C)C1CCC(=C)C2CCC3(C)OC12/C=C(/COC(C)=O)CCC3O (stereo not given)",
    "unit_text": "%",
    "growth": 137
  },
  {
    "compound": "C=C(C)[C@@H]1CC[C@]2(CO)CC[C@]3(C)[C@H](CC[C@@H]4[C@@]5(C)C=C(C#N)C(=O)C(C)(C)[C@@H]5CC[C@]43C)[C@@H]12",
    "unit_text": "%",
    "growth": 32.9
  },
  {
    "compound": "Cc1nn(Cc2ccccc2)cc1C(=O)Nc1sc2c(c1C(N)=O)CCC(=O)C2",
    "unit_text": "%",
    "growth": 27.6
  },
  {
    "compound": "Cc1ccc(Nc2ccc(Nc3ccc(C)cc3S(=O)(=O)O)c3c2C(=O)c2ccccc2C3=O)c(S(=O)(=O)O)c1",
    "unit_text": "%",
    "growth": 101
  },
  {
    "compound": "CC(=O)OCCc1ccccc1",
    "unit_text": "%",
    "growth": 87.8
  },
  {
    "compound": "COc1ccc(-c2nc3sc4c(c3c(=O)[nH]2)CCCC4)c2ccccc12",
    "unit_text": "%",
    "growth": 41.8
  }
]

====

- Test system: UACC-257 melanoma
- assay_notes: NCI-60 one-dose screen, 48 h
- measurement_setup: 10 µM unless noted
Compounds without any hit were thinned out: in the full panel of roughly 83,000, 20% have a hit. Activity calls are given as the source filed them. How the source made its calls: active means growth percent below 10; inactive means the rest.
Outcome codes: 1 = active, -1 = inactive

[
  {
    "compound": "COc1ccc(-c2cn(-c3cccc(C(=O)/C=C/c4cc(OC)c(OC)c(OC)c4)c3)c(=O)[nH]2)cc1",
    "label_class": -1
  },
  {
    "compound": "CCCn1nc(-c2ccccc2)c2c(-c3ccccc3)onc2c1=O",
    "label_class": -1
  },
  {
    "compound": "O=C(NCOC(O)C(Cl)(Cl)Cl)NCOC(O)C(Cl)(Cl)Cl (stereo unspecified)",
    "label_class": -1
  },
  {
    "compound": "COC(=O)/C(=C\\c1ccc(OC)cc1)C(=O)N1c2ccccc2Sc2ccccc21",
    "label_class": -1
  },
  {
    "compound": "Nc1nc(I)c2ncn(C3OC(CO)C(O)C3O)c2n1 (stereo unspecified)",
    "label_class": -1
  },
  {
    "compound": "O=C(/C=C/C12c3ccccc3C(c3ccccc31)C1C(=O)N(c3ccccc3)C(=O)C12)c1ccc(Cl)cc1 (stereo unspecified)",
    "label_class": -1
  },
  {
    "compound": "CN(C)S(=O)(=O)n1cnc([C@@H]2[C@@H]3C(=O)OC[C@@H]3C[C@]23N=CN(Cc2ccccc2)C3=O)c1",
    "label_class": -1
  },
  {
    "compound": "COc1c(C)cnc(CSc2nc(-c3ccc(C)cc3)cn2-c2ccc(Cl)cc2)c1C",
    "label_class": -1
  },
  {
    "compound": "CCCCNC(=O)NS(=O)(=O)c1ccc(N2N=C(c3ccc(C)cc3C)CC2c2ccc(N(C)C)cc2)cc1 (stereo unspecified)",
    "label_class": -1
  },
  {
    "compound": "CC1(C)N=C(N)N=C(N)N1c1ccc(Cl)c(Cl)c1",
    "label_class": -1
  },
  {
    "compound": "CCOC(=O)C(=CNc1ccccc1[N+](=O)[O-])C(=O)OCC",
    "label_class": -1
  },
  {
    "compound": "CSc1nc(N)c(CNC(C)c2ccccc2)c(=O)n1C (stereo unspecified)",
    "label_class": -1
  },
  {
    "compound": "Cc1nc2ccc(C(=O)NCc3cc(C(=O)O)c(C)o3)cc2nc1C",
    "label_class": -1
  },
  {
    "compound": "c1ccc2[nH]c(SSc3nc4ncncc4[nH]3)nc2c1",
    "label_class": -1
  },
  {
    "compound": "CCCN1CCN(c2ccc3nc(-c4ccc5nc(-c6cc(OC)c(OC)c(OC)c6)[nH]c5c4)[nH]c3c2)CC1",
    "label_class": -1
  },
  {
    "compound": "O=S(=O)(Cc1ccccc1)c1nc2ccccc2s1",
    "label_class": -1
  },
  {
    "compound": "COc1cc2c(=O)n(CCCn3ccnc3)c3c4cc5c(cc4ccc3c2cc1OC)OCO5",
    "label_class": 1
  },
  {
    "compound": "COc1ccc(-c2cc(-c3cc(OC)ccc3O)[nH]c(=O)c2C#N)cc1",
    "label_class": -1
  },
  {
    "compound": "Cc1cc(-c2ccccc2)cc(SC#N)[n+]1[O-]",
    "label_class": -1
  },
  {
    "compound": "CN1CCN(c2ccc(Nc3ncc(Cl)c(NC[C@@H]4CCCO4)n3)cc2)CC1",
    "label_class": -1
  },
  {
    "compound": "COC1=CC(c2ccc[nH]2)=N/C1=C\\c1[nH]c(C)c(C(=O)OCCn2cc(CCC[C@@H]3Cc4cc(O)ccc4C4CC[C@]5(C)[C@@H](O)CC[C@H]5C43)nn2)c1C (stereo partly specified)",
    "label_class": -1
  },
  {
    "compound": "CCCN1CCN(c2ccc3nc(-c4ccc5nc(-c6ccc(OCC)c(OCC)c6)[nH]c5c4)[nH]c3c2)CC1",
    "label_class": 1
  },
  {
    "compound": "Cn1cc(-c2ccc3nc(-c4ccc(CC(=O)Nc5cc(C(C)(C)C)no5)cc4)cnc3c2)cn1",
    "label_class": -1
  },
  {
    "compound": "Cc1nc(Nc2ccc(N)cc2)c2ccccc2n1",
    "label_class": -1
  },
  {
    "compound": "Clc1ccc(-c2nnc(-c3ccco3)o2)cc1",
    "label_class": -1
  },
  {
    "compound": "Cc1cc(C(c2ccccc2)c2ccccc2)ccc1NS(=O)(=O)c1ccccc1",
    "label_class": -1
  },
  {
    "compound": "CNC(=O)c1cc(Oc2ccc3nc(Nc4cc(Cl)cc(Cl)c4)ccc3c2)ccn1",
    "label_class": -1
  },
  {
    "compound": "CC(C)(C)N1CC(OC(N)=O)C1",
    "label_class": 1
  },
  {
    "compound": "COC(=O)c1ccc(CSc2nnc(-c3ccncc3)o2)cc1",
    "label_class": -1
  },
  {
    "compound": "CCCCC1COc2cccc3c(SCC(=O)N(C)c4cccc(Cl)c4)cc[n+]1c23 (stereo unspecified)",
    "label_class": -1
  },
  {
    "compound": "C[C@@H]1CC[C@@H]2[C@@H]1[C@H](OC(=O)c1ccc3ccccc3c1)[C@]1(C3CCCCC3)C[C@@H](OC(=O)CO)[C@@]2(C)O1",
    "label_class": -1
  },
  {
    "compound": "Cc1c(C(N)=O)sc2nc(C)n(/N=c3\\scc(-c4ccccc4)n3Cc3ccccc3)c(=O)c12",
    "label_class": 1
  },
  {
    "compound": "CCNCCNc1cc(-c2ccc(Cl)cc2)c(C#N)c2nc3ccccc3n12",
    "label_class": 1
  },
  {
    "compound": "N=C(N)c1ccc(-c2ccc(-c3ccc(Cl)cc3Cl)o2)nc1",
    "label_class": -1
  },
  {
    "compound": "Cc1ccc(NSc2ccccc2[N+](=O)[O-])cc1",
    "label_class": -1
  },
  {
    "compound": "OC(CBr)c1ccnc2ccccc12 (stereo unspecified)",
    "label_class": -1
  },
  {
    "compound": "O=C1N/C(=N/O)S/C1=C/c1cn(-c2ccccc2)nc1-c1ccccc1",
    "label_class": -1
  },
  {
    "compound": "Cc1c2c(cn1Cc1ccccc1)CCc1cn(C)nc1-2",
    "label_class": -1
  },
  {
    "compound": "CCOC(=O)c1nnn(-c2ccccc2)c1C1=CN(C)CCC1",
    "label_class": -1
  },
  {
    "compound": "OC(c1cccc(OCc2ccccc2)c1)c1nnc(-c2ccccc2)o1 (stereo unspecified)",
    "label_class": -1
  },
  {
    "compound": "COc1cc2cc(Oc3ccc(NC(=O)Nc4cc(C(F)(F)F)cc(C(F)(F)F)c4)cc3)c(C)nc2cc1OCCN1CCCCC1",
    "label_class": 1
  }
]
